Tested on: Zea mays
Assay: greenhouse post-emergence herbicidal activity on crop plant corn (use examples)
Format: in vivo
Conditions: ZEAMX (corn, crop plant), 0.125 kg/ha, scale 0 to 100
Listing of entries alongside the reported plant injury at 125 g/ha.

# compound smiles, measured target, unit spec, plant injury at 125 g/ha
data = [
    ("CC(=O)N(C)c1c(Cl)ccc(C2=C(O)c3ncccc3CS2(=O)=O)c1Cl", "Zea mays", "%", 10),
    ("CN(C(=O)C(F)F)c1c(Cl)ccc(C2=C(O)c3ncccc3C(C)(C)S2(=O)=O)c1Cl", "Zea mays", "%", 30),
    ("CC(=O)N(C)c1c(Cl)ccc(C2=C(O)c3ncc(F)cc3C(C)(C)S2(=O)=O)c1Cl", "Zea mays", "%", 30),
    ("CC(=O)N(C)c1c(Cl)ccc(C2=C(OC(=O)C(C)(C)C)c3ncccc3C(C)(C)S2(=O)=O)c1Cl", "Zea mays", "%", 30),
    ("CC(=O)N(C)c1c(Cl)ccc(C2=C(OC(=O)C(C)(C)C)c3ncc(F)cc3C(C)(C)S2(=O)=O)c1Cl", "Zea mays", "%", 15),
]
